# Test system: Rattus norvegicus
# test-method-notes: Toxicity in po dosed Rattus norvegicus (rat)
# protocol-conditions: in vivo
experimental-endpoint: pLD50

# compound, experimental-endpoint, quantitative-readout
measured = [
    ("Nc1cc(Cl)cc(C(=O)O)c1Cl", "pLD50", 8.16),
    ("O=C(O)c1c(Cl)ccc(Cl)c1O", "pLD50", 7.35),
    ("O=C(O)Cc1ccccc1C(=O)O", "pLD50", 6.21),
    ("O=C(O)c1ccccc1", "pLD50", 7.44),
    ("COc1c(Cl)ccc(Cl)c1C(=O)O", "pLD50", 6.95),
    ("O=C(O)c1ccccc1/N=C/c1ccccc1", "pLD50", 6.21),
    ("CC(C)OC(=O)c1ccccc1", "pLD50", 8.22),
    ("Nc1ccccc1C(=O)O", "pLD50", 8.6),
    ("C=COC(=O)c1ccccc1", "pLD50", 8.09),
    ("CCCOC(=O)c1cc(O)c(O)c(O)c1 [PROPYL GALLATE]", "pLD50", 7.65),
    ("COC(=O)c1ccccc1OC(N)=O", "pLD50", 7.82),
    ("O=C(O)c1ccccc1OP(=O)(O)O", "pLD50", 7.01),
    ("O=C(O)c1c(Cl)ccc(Cl)c1Cl", "pLD50", 6.48),
    ("Cc1ccc(OC(=O)c2ccccc2)cc1", "pLD50", 7.88),
    ("COC(=O)c1cc([N+](=O)[O-])ccc1Cl", "pLD50", 8.59),
    ("Nc1ccc(O)c(C(=O)O)c1", "pLD50", 7.94),
    ("Nc1c(Cl)cc(Cl)cc1C(=O)O", "pLD50", 8.32),
    ("CC(=O)Oc1ccccc1C(=O)O", "pLD50", 5.3),
    ("CCCCOC(=O)c1ccccc1N [BUTYL 2-AMINOBENZOATE]", "pLD50", 8.52),
    ("O=C(Cl)c1ccccc1 [BENZOYL CHLORIDE]", "pLD50", 7.55),
    ("O=C(O)c1cc(S(=O)(=O)O)ccc1O", "pLD50", 7.52),
    ("CCCCCCOC(=O)c1ccccc1", "pLD50", 9.42),
    ("O=C(OCc1ccccc1)c1ccccc1O [BENZYL SALICYLATE]", "pLD50", 7.71),
]

---

# Test system: Rattus norvegicus
# test-method-notes: Toxicity in po dosed Rattus norvegicus (rat)
# protocol-conditions: in vivo

# compound, pLD50
data = [
    ("COC(=O)c1ccc(OC)cc1 [METHYL 4-METHOXYBENZOATE]", 8.52),
    ("O=C(Oc1ccccc1)c1ccccc1O [PHENYL SALICYLATE]", 8.01),
    ("CCOC(=O)c1ccc(OC)cc1 [4-METHOXYBENZOIC ACID ETHYL ESTER]", 7.62),
]

---

# System: Rattus norvegicus
# test-method-notes: Toxicity in po dosed Rattus norvegicus (rat)
# protocol-conditions: in vivo
experimental-endpoint: pLD50

# molecule, experimental-endpoint, quantitative-readout
measured = [
    ("CC(C)COC(=O)c1ccccc1O", "pLD50", 7.35),
    ("Cc1ccc(OC(=O)c2ccccc2O)cc1", "pLD50", 7.17),
    ("O=C(O)c1ccccc1O [SALICYLIC ACID]", "pLD50", 6.791),
    ("O=C(O)c1ccccc1C(=O)c1ccccc1 [2-BENZOYLBENZOIC ACID]", "pLD50", 8.43),
    ("O=C(O)c1ccc(O)cc1 [PARABEN]", "pLD50", 9.21),
    ("NC(=O)c1ccccc1O [SALICYLAMIDE]", "pLD50", 6.89),
    ("CC(C)CCOC(=O)c1ccccc1O", "pLD50", 8.1),
]

---

# Test system: Rattus norvegicus
# test-method-notes: Toxicity in po dosed Rattus norvegicus (rat)
# protocol-conditions: in vivo

# compound, pLD50
rows = [
    ("COC(=O)c1cccc(C)c1O", 8.25),
    ("CCOC(=O)c1ccccc1O [ETHYL SALICYLATE]", 7.191),
    ("O=C(O)c1cc(Cl)ccc1O", 5.52),
    ("Cc1cccc(C(=O)O)c1O [HYDROXYTOLUIC ACID]", 6.1),
    ("COC(=O)c1ccccc1O [METHYL SALICYLATE]", 6.79),
    ("O=C(Oc1cccc(O)c1)c1ccccc1 [BENZOIC ACID 3-HYDROXYPHENYL ESTER]", 6.68),
    ("CC(C)CCOC(=O)c1ccccc1", 8.75),
    ("Nc1ccc(C(=O)O)cc1", 8.7),
    ("O=C(Cl)c1ccc([N+](=O)[O-])cc1 [4-NITROBENZOYL CHLORIDE]", 8.63),
    ("CC(C)COC(=O)c1ccccc1", 8.63),
    ("O=C(O)c1ccc(Cl)c([N+](=O)[O-])c1", 8.06),
    ("COC(=O)c1ccccc1OC [METHYL 2-METHOXYBENZOATE]", 8.241),
    ("COc1cccc(OC)c1C(=O)O", 6.21),
    ("O=C(OCC1CO1)c1ccccc1 (stereo unspecified)", 7.25),
    ("CNc1ccccc1C(=O)OC", 8.13),
    ("CCOC(=O)c1ccccc1 [ETHYL BENZOATE]", 7.65),
    ("CCOC(=O)c1ccc(N)cc1", 8.02),
    ("CC(C)=CCOC(=O)c1ccccc1", 8.46),
    ("CCOC(=O)c1ccc([N+](=O)[O-])cc1", 7.89),
    ("O=C(O)c1cc([N+](=O)[O-])cc([N+](=O)[O-])c1O", 6.76),
    ("O=C(O)c1ccc([N+](=O)[O-])cc1", 7.58),
]
